Data origin, for the record: PubChem BioAssay AID1963970

System: 931267-113-T-J1-PDC multicell spheroid viability;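 further: viability read 7 days after compound addition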
Experiment: Anticancer human tumor 931267-113-T-J1-PDC patient-derived colon adenocarcinoma cell line growth inhibition [PI3K]
Conditions: second compound 0.1 µM; first compound 0.0949 µM; stronger effect = lower value
property_measured: viability, T/C (%)
Answer in %, number only, no unit symbol.

query: Identify the reported viability, T/C for the following entry. Cn1cnc2c(F)c(Nc3ccc(Br)cc3Cl)c(C(=O)NOCCO)cc21 + CC(Nc1ccc2c(c1)OCCn1cc(N3C(=O)OCC3C(F)F)nc1-2)C(N)=O
result: 39.3

query: Identify the reported viability, T/C for the following entry. Cn1cnc2c(F)c(Nc3ccc(Br)cc3Cl)c(C(=O)NOCCO)cc21 + Cc1nc(NC(=O)N2CCCC2C(N)=O)sc1-c1ccnc(C(C)(C)C(F)(F)F)c1
result: 44.1

query: Identify the reported viability, T/C for the following entry. Cn1cnc2c(F)c(Nc3ccc(Br)cc3Cl)c(C(=O)NOCCO)cc21 + COc1c(OCCCN2CCOCC2)ccc2c3n(c(=NC(=O)c4cnc(N)nc4)nc12)CCN3
result: 19.6

query: Identify the reported viability, T/C for the following entry. Cn1cnc2c(F)c(Nc3ccc(Br)cc3Cl)c(C(=O)NOCCO)cc21 + CC(Nc1ncnc2nc[nH]c12)c1cc2cccc(Cl)c2c(=O)n1-c1ccccc1
result: 55.4
